All figures here come from ChEMBL document CHEMBL1687836.

Method Description: Cytotoxicity against guinea pig CCL158 cells after 10 days by crystal violet staining
Type: cell-based, Cavia porcellus
Quantity Name: CC50 at 240 h

// CC50 at 240 h lookup, key: CCCCCCCCCCCCCCCCOCCCOP(=O)(O)CO[C@H](CO)Cn1ccc(N)nc1=O [BRINCIDOFOVIR] > 100 µM
